Test: molar heat capacity at constant pressure
Settings: 323 K; 101.33 kPa; Liquid; Large sample (1 g) DSC
propertyMeasured: molar heat capacity at constant pressure (J/K/mol)
Output spec: scalar in J/K/mol, unitless text.

Challenge: I have this compound here, CCCCCCn1cc[n+](C)c1.F[B-](F)(F)F [1-hexyl-3-methylimidazolium tetrafluoroborate] , and I need its recorded molar heat capacity at constant pressure.
Response given: 433

Challenge: I have this compound here, CCCCn1cc[n+](C)c1.COCCOCCOS(=O)(=O)[O-] [1-butyl-3-methylimidazolium 2-(2-methoxyethoxy)ethyl sulfate] , and I need its recorded molar heat capacity at constant pressure.
Response given: 652

Challenge: I have this compound here, CCCCCC[n+]1cccc(C)c1.[Br-] [1-hexyl-3-methylpyridinium bromide] , and I need its recorded molar heat capacity at constant pressure.
Response given: 358

Challenge: I have this compound here, `CCCC[n+]1cccc(C)c1.O=S(=O)([N-]S(=O)(=O)C(F)(F)F)C(F)(F)F` , and I need its recorded molar heat capacity at constant pressure.
Response given: 641

Challenge: I have this compound here, `CCCCCCCCn1cc[n+](C)c1.O=S(=O)([N-]S(=O)(=O)C(F)(F)F)C(F)(F)F` , and I need its recorded molar heat capacity at constant pressure.
Response given: 677

Challenge: I have this compound here, `CCCCCCn1cc[n+](C)c1C.O=S(=O)([N-]S(=O)(=O)C(F)(F)F)C(F)(F)F` , and I need its recorded molar heat capacity at constant pressure.
Response given: 705

Challenge: I have this compound here, CCOC(=O)c1ccc[n+](CC)c1.CCOS(=O)(=O)[O-] [3-(ethoxycarbonyl)-1-ethylpyridinium ethylsulfate] , and I need its recorded molar heat capacity at constant pressure.
Response given: 530

Challenge: I have this compound here, CCCCCCCCn1cc[n+](C)c1.[Br-] [1-methyl-3-octylimidazolium bromide] , and I need its recorded molar heat capacity at constant pressure.
Response given: 408

Challenge: I have this compound here, `CCCCCC[n+]1ccn(C)c1.O=S(=O)([N-]S(=O)(=O)C(F)(F)F)C(F)(F)F` , and I need its recorded molar heat capacity at constant pressure.
Response given: 604

Challenge: I have this compound here, CCCCCCCC[n+]1ccn(C)c1.F[B-](F)(F)F [1-methyl-3-octylimidazolium tetrafluoroborate] , and I need its recorded molar heat capacity at constant pressure.
Response given: 526
